I'd be grateful if you could share measured normalized growth for these entries.
# Assay Method Text: chemical genetic growth profiling, strain panel (AID 1159580);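 also: tested at 20 µM; growth read once vehicle control cultures reached saturation at 30 °C; 1 = growth at the plate median or of vehicle wells; lower values mean less growth of the strain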
# Condition Info: S. cerevisiae deletion strains, growth OD, locus YOR001W, strain rrp6, stronger effect = lower value
Hit rate of the full screen: of about 5,500 compounds, about 2,000 (36%) were called active. Roughly 18% stayed inconclusive and do not appear here. The list shows a part of the results.
// keep it numeric: no unit symbol after the value

Record summary for "CC(=O)OC(C)(C)[C@@H]1Cc2cc3ccc(=O)oc3cc2O1" : reported normalized growth = 1.01

Record summary for CC1=C(C(C)O)C2=NC1C=c1[nH]c(c(C)c1C(C)O)=Cc1[nH]c(c(CCC(=O)O)c1C)C=c1[nH]c(c(C)c1CCC(=O)O)=C2 (stereo not drawn) : reported normalized growth = 1

Record summary for CN1CCCN=C1COC(=O)C(O)(c1ccccc1)C1CCCCC1 (stereo not drawn) : reported normalized growth = 1.01

Record summary for CC1CC2C3CCC4=CC(=O)C=C[C@]4(C)[C@@]3(F)[C@@H](O)C[C@]2(C)[C@@]1(O)C(=O)CO (stereo partly drawn) : reported normalized growth = 1.04

Record summary for "CN(C)CC/C=C1\c2ccccc2Sc2ccc(Cl)cc21" : reported normalized growth = 0.935

Record summary for "COc1cc2c(cc1OC)Cc1cc(OC)c(OC)cc1Cc1cc(OC)c(OC)cc1C2" : reported normalized growth = 1.02

Record summary for "COc1ccc2c(c1OC)C(=O)O[C@@H]2[C@H]1c2cc3c(cc2CCN1C)OCO3" : reported normalized growth = 0.998

Record summary for "CCOC(=O)[C@H](CCc1ccccc1)N[C@H]1CCc2ccccc2N(CC(=O)O)C1=O" : reported normalized growth = 0.989

Record summary for "COc1cc2c(cc1OC)C(=O)OC2" : reported normalized growth = 0.993

Record summary for NCC1CCC(C(=O)O)CC1 (stereo not drawn) : reported normalized growth = 0.998

Record summary for CC(N)C(=O)OC(C)(C)Cc1ccc(Cl)cc1 (stereo not drawn) : reported normalized growth = 1.06

Record summary for C=Cc1c2[nH]c(c1C)C=c1[nH]c(c(C)c1C=C)=CC1N=C(C=c3[nH]c(c(C)c3CCC(=O)O)=C2)C(CCC(=O)O)=C1C (stereo not drawn) : reported normalized growth = 1.03

Record summary for COc1cc(NC(C)CCCN)c2ncccc2c1 (stereo not drawn) : reported normalized growth = 1.02

###

# Assay Method Text: chemical genetic growth profiling, strain panel (AID 1159580);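 also: tested at 20 µM; growth read once vehicle control cultures reached saturation at 30 °C; 1 = growth at the plate median or of vehicle wells; lower values mean less growth of the strain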
# Condition Info: S. cerevisiae deletion strains, growth OD, locus YNL250W, strain rad50
The campaign covered roughly 5,500 compounds. About 2,000 (36%) were called active. Not shown: some 18% with an inconclusive outcome. Cut-off read from the data, not from the text of the source: active = normalized growth mostly below about 0.91 (no sharp cut-off); inconclusive = no clear call, values can overlap the other calls; inactive = mostly above about 0.92. Some of the results follow.
The categories you may choose from are 1 (yes) for active, 0 (no) for inactive

Outcome logged for "CC(=O)c1c(O)c(C)c(O)c2c1oc1c(C(C)=O)c(O)c(C)c(O)c12" in this assay:
0 (no)

Outcome logged for "CN1CCC(=C2c3ccccc3CC(=O)c3sccc32)CC1" in this assay:
0 (no)

Outcome logged for "COc1cc2c(cc1OC)[C@@H]1C(=O)c3ccc4c(c3O[C@@H]1CO2)C=CC(C)(C)O4" in this assay:
0 (no)

Outcome logged for "O=C1C=CC(=C(c2ccc(O)cc2)c2ccc(O)cc2)C=C1" in this assay:
0 (no)

Outcome logged for CC(C(=O)O)c1ccc(-c2ccccc2)c(F)c1 (configuration not stated) in this assay:
0 (no)

Outcome logged for CCCCCCCCNC(C)C(O)c1ccc(SC(C)C)cc1 (configuration not stated) in this assay:
1 (yes)

Outcome logged for CC1(C)C(C=C(Cl)Cl)C1C(=O)OC(C#N)c1cccc(Oc2ccccc2)c1 (configuration not stated) in this assay:
0 (no)

Outcome logged for "COc1cc2c(cc1OC)[C@@H]1C(=O)c3ccc4oc(C(C)C)cc4c3O[C@@H]1CO2" in this assay:
0 (no)

Outcome logged for "NCCSSCCN" in this assay:
0 (no)

Outcome logged for CC(C(=O)O)c1cccc(Oc2ccccc2)c1 (configuration not stated) in this assay:
0 (no)

Outcome logged for "CN(C)c1ccc(C(=C2C=CC(=[N+](C)C)C=C2)c2ccc(N(C)C)cc2)cc1" in this assay:
1 (yes)

Outcome logged for O=C(O)C1(O)C[C@@H](O)C(O)[C@H](O)C1 (some centres not stated) in this assay:
0 (no)

Outcome logged for CC(NCCc1ccc(O)cc1)C(O)c1ccc(O)cc1 (configuration not stated) in this assay:
0 (no)

Outcome logged for "CC(=O)OCC[N+](C)(C)C" in this assay:
0 (no)

Outcome logged for C=C1C2CC[C@H]3[C@]4(C)C[C@H](OC5OC(CO)C(OS(=O)(=O)O)C(OS(=O)(=O)O)C5OC(=O)CC(C)C)C[C@@H](C(=O)O)[C@H]4CC[C@]3(C2)[C@H]1O (some centres not stated) in this assay:
0 (no)

Outcome logged for COc1cc(NC(C)CCCN)c2ncccc2c1 (configuration not stated) in this assay:
0 (no)

Outcome logged for CC(=O)OCC(=O)[C@H]1CCC2C3CCC4=CC(=O)CC[C@]4(C)C3CC[C@@]21C (some centres not stated) in this assay:
0 (no)

Outcome logged for CC(=O)OCC(=O)[C@@]1(O)CCC2C3CCC4=CC(=O)CC[C@]4(C)C3C(=O)C[C@@]21C (some centres not stated) in this assay:
0 (no)

Outcome logged for "CCOC(=O)[C@H](CCc1ccccc1)N[C@H]1CCc2ccccc2N(CC(=O)O)C1=O" in this assay:
0 (no)

Outcome logged for "CN[C@@H](C)[C@@H](O)c1ccccc1" in this assay:
0 (no)

Outcome logged for "COc1ccc2cc([C@H](C)C(=O)O)ccc2c1" in this assay:
0 (no)

Outcome logged for "COc1ccc2c(c1)OCc1c-2oc2cc(OC)ccc12" in this assay:
0 (no)

Each recorded value in this set is attributed to PubChem BioAssay AID1159580.
